Measurement target: T1, HpParB (HpSpo0J) (Helicobacter pylori, UniProt O25758 1-290)
T1 sequence: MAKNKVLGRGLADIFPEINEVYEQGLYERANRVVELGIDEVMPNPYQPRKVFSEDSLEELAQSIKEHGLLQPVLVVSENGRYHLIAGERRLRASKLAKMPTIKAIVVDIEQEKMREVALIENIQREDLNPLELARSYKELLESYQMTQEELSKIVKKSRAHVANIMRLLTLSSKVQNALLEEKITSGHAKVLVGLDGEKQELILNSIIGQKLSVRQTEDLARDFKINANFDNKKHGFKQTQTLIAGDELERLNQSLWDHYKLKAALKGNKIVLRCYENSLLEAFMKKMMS
Protocol details: fluorescence polarization; 1 mM CTP, 5 mM Mg2+; FP: 20 mM Tris-HCl pH 8.0, 175 mM NaCl, 5 mM MgCl2, 10% glycerol, 1 mM ATP or CTP, 5 nM DNA, room temperature; EMSA: 20 mM Tris-HCl pH 8.0, 50 mM NaCl, 11 mM imidazole, 5 mM MgCl2, 10% glycerol, +/- 2 mM CTP, 37 C, gel at 4 C
Condition notes: protein: recombinant; tags: His (Ni-NTA purified); chain copies: 2; label: 5' Cy5 in EMSA; FP label Cy3 or Cy5 not specified per DNA; blunt
Readout: pKd
To interpret pKd, take it as minus log10 of a concentration measured in moles per litre.

Entry under test: Cy5/Cy3-labeled nsDNA 24-bp (dsDNA) DNA 1: TCCTATGAATTGCTATGGCAAGCG DNA 2: CGCTTGCCATAGCAATTCATAGGA . Its pKd was 6.84

Attribution: paper PMC11229316
